Assay: Apparent permeability across pig LLC-PK1 cells
Assay type: ADME, cell-based, Sus scrofa
measurement_label: Papp
The reply should consist of the numeric value with the unit placed after it.

Q. Return reported Papp. Input compound: O=C(O)CCc1nc2nc(N3CCC(Oc4cc(F)ccc4Br)CC3)sc2c(=O)[nH]1
A. 2 ×10⁻⁶ cm/s

====

Target: Acyl-CoA desaturase 1 (Rattus norvegicus, UniProt P07308)
Sequence (P07308 whole entry): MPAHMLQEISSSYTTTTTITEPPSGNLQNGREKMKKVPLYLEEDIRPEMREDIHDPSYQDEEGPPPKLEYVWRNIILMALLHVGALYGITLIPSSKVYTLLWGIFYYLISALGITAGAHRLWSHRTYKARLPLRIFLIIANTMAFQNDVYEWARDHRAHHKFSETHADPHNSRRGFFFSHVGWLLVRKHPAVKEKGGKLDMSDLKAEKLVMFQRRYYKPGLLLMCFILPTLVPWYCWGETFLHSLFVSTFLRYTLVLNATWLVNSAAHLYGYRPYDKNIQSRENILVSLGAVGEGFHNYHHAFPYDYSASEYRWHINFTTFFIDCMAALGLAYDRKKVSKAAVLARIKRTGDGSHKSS
Assay: Inhibition of rat SCD1 in rat liver microsome
measurement_label: log10 IC50 (log10 of the value in nM)
Form field - Quantity: IC50; Unit: nM; Scale: log10

Answered cases to consult:
molecular_string=Nc1ncnc2nc(N3CCC(Oc4ccccc4C(F)(F)F)CC3)sc12 measurement_label="log10 IC50" value_measured=1.75
molecular_string=O=c1[nH]c(N2CCC(Oc3ccccc3C(F)(F)F)CC2)nc2[nH]cnc12 measurement_label="log10 IC50" value_measured=1.99
molecular_string=O=c1[nH]c(CO)nc2nc(N3CCC(Oc4ccccc4C(F)(F)F)CC3)sc12 measurement_label="log10 IC50" value_measured=0.30
molecular_string=Fc1ccc(Br)c(OC2CCN(c3ncnc4nc[nH]c34)CC2)c1 measurement_label="log10 IC50" value_measured=0.00
molecular_string=O=c1[nH]c2cnc(N3CCC(Oc4ccccc4C(F)(F)F)CC3)nc2[nH]1 measurement_label="log10 IC50" value_measured=1.58
molecular_string=O=c1[nH]cnc2nc(N3CCC(Oc4ccccc4C(F)(F)F)CC3)sc12 measurement_label="log10 IC50" value_measured=0.85
molecular_string=O=C(O)CNc1nc2cnc(N3CCC(Oc4cc(F)ccc4Br)CC3)nc2s1 measurement_label="log10 IC50" value_measured=0.60
molecular_string=O=C(O)COc1nc2cnc(N3CCC(Oc4cc(F)ccc4Br)CC3)nc2s1 measurement_label="log10 IC50" value_measured=0.85

Q. Fill in log10 IC50 for Cc1ncc2sc(N3CCC(Oc4ccccc4C(F)(F)F)CC3)nc2n1 tested with Acyl-CoA desaturase 1 (Rattus norvegicus, UniProt P07308).
A. 1.73

Q. Output reported log10 IC50 of the compound FC(F)(F)c1ccccc1OC1CCN(c2nc3ncccc3s2)CC1 on Acyl-CoA desaturase 1 (Rattus norvegicus, UniProt P07308).
A. 1.92

Q. Provide log10 IC50, tested on Acyl-CoA desaturase 1 (Rattus norvegicus, UniProt P07308), for Nc1nc2cnc(N3CCC(Oc4cc(F)ccc4Br)CC3)nc2s1 .
A. 0.00

Q. Report value: log10 IC50, system: Acyl-CoA desaturase 1 (Rattus norvegicus, UniProt P07308), compound: FC(F)(F)c1ccccc1OC1CCN(c2ncnc3nc[nH]c23)CC1
A. 1.00

Q. For Acyl-CoA desaturase 1 (Rattus norvegicus, UniProt P07308), give log10 IC50 of the listed compound: Cc1nc2nc(N3CCC(Oc4ccccc4C(F)(F)F)CC3)sc2c(=O)[nH]1
A. 0.90

Q. Please tell me the measured log10 IC50 for FC(F)(F)c1ccccc1OC1CCN(c2ncc3[nH]cnc3n2)CC1 ; system: Acyl-CoA desaturase 1 (Rattus norvegicus, UniProt P07308).
A. 1.00

Q. Please indicate recorded log10 IC50 of Fc1ccc(Br)c(OC2CCN(c3nc4ccccc4s3)CC2)c1 measured with Acyl-CoA desaturase 1 (Rattus norvegicus, UniProt P07308).
A. 2.68

Q. Would you please give the reported log10 IC50 of Fc1ccc(Br)c(OC2CCN(c3ncc4[nH]cnc4n3)CC2)c1 with Acyl-CoA desaturase 1 (Rattus norvegicus, UniProt P07308)?
A. 0.48

Q. Please report the measured log10 IC50 for O=c1[nH]ccc2nc(N3CCC(Oc4ccccc4C(F)(F)F)CC3)sc12 tested on Acyl-CoA desaturase 1 (Rattus norvegicus, UniProt P07308).
A. 1.93

Q. Answer briefly: log10 IC50 recorded on Acyl-CoA desaturase 1 (Rattus norvegicus, UniProt P07308) for O=C(O)CCc1nc2nc(N3CCC(Oc4cc(F)ccc4Br)CC3)sc2c(=O)[nH]1
A. 2.42
